- System: Pseudomonas fluorescens HPPD polypeptide (wild-type and mutants)
- Assay method text: Coupled HPPD activity assay: turnover and residual turnover in crude HPPD polypeptide extracts with and without Cmpd. 1
- Assay type: biochemical
- Stated conditions: presence of 100 μM Cmpd. 1; changes in absorbance (OD) at 320 nm in the coupled assay, 30 min
Experimental readout: Residual turnover

Looking up SEQ ID NO:40 (protein, mutant HPPD polypeptide) MADLYENPMGLMGFEFIEFASPTPGTLEPIFEIMGFTKVATHRSKNVHLYRQGEINLILNNEPNSIASYFAAEHGPSVCGMAFRVKDSQKAYNRALELGAQPIHIDTGPMELNLPAIKGIGGAPLYLIDRFGEGSSIYDIDFVYLEGVERNPVGAGLKVIDHLTHNVYRGRMVYWANFYEKLFNFREARYFDIKGEYTGLTSKAMSAPDGMIKIPLNEESSKGAGQIEEFLMQFNGEGIQHVAFLTDDLVKTWDALKKIGMRFMTAPGDEYYEMLEGRLPDHGEPVDQLQARGILLDGSSVEGDKRLLLQIFSEQLMGPVFFEFIQRKGDDGFGPDSFKVLFESMERDQVRRGVLTAD , I see its Residual turnover listed as 0.073
